B1: E3 ubiquitin-protein ligase NEDD4-like, residues 539 to 589; numbered along this chain, Q96PU5 (parent)
chain: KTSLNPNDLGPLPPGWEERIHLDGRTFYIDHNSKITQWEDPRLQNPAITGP

variants of: B1; test: abundance fitness (aPCA) (normalised: wild type 0, dead -1); higher = more abundant; growth selection in yeast, the domain comes from the species named; settings: Homo sapiens
experimental_endpoint: abundance fitness
// print number alone

Use the examples below as a reference point.
>  <mutation_code>
D40V

>  <experimental_endpoint>
abundance fitness

>  <test_value>
-0.706

$$$$
>  <mutation_code>
P13N

>  <experimental_endpoint>
abundance fitness

>  <test_value>
-0.437

$$$$
>  <mutation_code>
P11I

>  <experimental_endpoint>
abundance fitness

>  <test_value>
-0.322

$$$$
>  <mutation_code>
L4D

>  <experimental_endpoint>
abundance fitness

>  <test_value>
-0.108

$$$$
>  <mutation_code>
G10H

>  <experimental_endpoint>
abundance fitness

>  <test_value>
-0.53

$$$$
>  <mutation_code>
E18A

>  <experimental_endpoint>
abundance fitness

>  <test_value>
-0.071

$$$$
>  <mutation_code>
A47M

>  <experimental_endpoint>
abundance fitness

>  <test_value>
-0.212

$$$$
>  <mutation_code>
N45Y

>  <experimental_endpoint>
abundance fitness

>  <test_value>
-0.157

$$$$

Prompt: Consider the variant F27T and give its measured abundance fitness.
Response: -0.089

Prompt: Consider the variant H31Y and give its measured abundance fitness.
Response: -0.414

Prompt: Consider the variant I48M and give its measured abundance fitness.
Response: -0.176

Prompt: Consider the variant I29K and give its measured abundance fitness.
Response: -0.027

Prompt: Consider the variant Y28M and give its measured abundance fitness.
Response: -0.991

Prompt: Consider the variant L4E and give its measured abundance fitness.
Response: -0.143

Prompt: Consider the variant Q44W and give its measured abundance fitness.
Response: -0.27

Prompt: Consider the variant R25Y and give its measured abundance fitness.
Response: -0.569

Prompt: Consider the variant D23Y and give its measured abundance fitness.
Response: -0.715
